Assign pIC50 to each entry below.
TESTED ON: VLA4 (Homo sapiens, UniProt P05556+P13612)
Construct: endogenous in cells; host or cells: Ramos cells
Sequence (P13612 34-1032): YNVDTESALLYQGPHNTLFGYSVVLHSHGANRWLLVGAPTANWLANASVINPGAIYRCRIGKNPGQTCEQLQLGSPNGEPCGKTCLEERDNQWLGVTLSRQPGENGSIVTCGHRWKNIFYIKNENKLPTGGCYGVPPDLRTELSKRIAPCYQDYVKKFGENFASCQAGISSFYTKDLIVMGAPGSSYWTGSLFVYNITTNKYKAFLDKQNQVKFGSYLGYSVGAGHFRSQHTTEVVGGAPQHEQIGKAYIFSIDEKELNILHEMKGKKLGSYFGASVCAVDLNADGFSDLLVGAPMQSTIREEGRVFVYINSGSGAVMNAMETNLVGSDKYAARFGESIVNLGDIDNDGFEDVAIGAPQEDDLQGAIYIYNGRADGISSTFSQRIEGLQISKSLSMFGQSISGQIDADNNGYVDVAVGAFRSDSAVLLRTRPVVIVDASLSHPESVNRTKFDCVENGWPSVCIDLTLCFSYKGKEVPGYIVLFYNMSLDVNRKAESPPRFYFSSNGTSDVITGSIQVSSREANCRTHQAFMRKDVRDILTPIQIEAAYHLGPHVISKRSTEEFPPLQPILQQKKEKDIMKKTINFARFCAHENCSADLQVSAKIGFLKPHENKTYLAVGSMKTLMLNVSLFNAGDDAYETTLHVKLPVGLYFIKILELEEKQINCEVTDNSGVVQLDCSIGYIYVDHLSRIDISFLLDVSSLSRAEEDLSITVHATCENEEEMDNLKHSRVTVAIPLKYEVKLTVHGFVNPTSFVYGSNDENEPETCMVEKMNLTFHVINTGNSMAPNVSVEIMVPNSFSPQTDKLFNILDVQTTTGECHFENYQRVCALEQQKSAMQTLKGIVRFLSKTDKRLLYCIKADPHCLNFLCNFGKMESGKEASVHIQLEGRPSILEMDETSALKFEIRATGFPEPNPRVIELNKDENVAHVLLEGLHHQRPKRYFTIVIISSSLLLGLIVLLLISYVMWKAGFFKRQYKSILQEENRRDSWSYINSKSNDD
Sequence (P05556 21-798): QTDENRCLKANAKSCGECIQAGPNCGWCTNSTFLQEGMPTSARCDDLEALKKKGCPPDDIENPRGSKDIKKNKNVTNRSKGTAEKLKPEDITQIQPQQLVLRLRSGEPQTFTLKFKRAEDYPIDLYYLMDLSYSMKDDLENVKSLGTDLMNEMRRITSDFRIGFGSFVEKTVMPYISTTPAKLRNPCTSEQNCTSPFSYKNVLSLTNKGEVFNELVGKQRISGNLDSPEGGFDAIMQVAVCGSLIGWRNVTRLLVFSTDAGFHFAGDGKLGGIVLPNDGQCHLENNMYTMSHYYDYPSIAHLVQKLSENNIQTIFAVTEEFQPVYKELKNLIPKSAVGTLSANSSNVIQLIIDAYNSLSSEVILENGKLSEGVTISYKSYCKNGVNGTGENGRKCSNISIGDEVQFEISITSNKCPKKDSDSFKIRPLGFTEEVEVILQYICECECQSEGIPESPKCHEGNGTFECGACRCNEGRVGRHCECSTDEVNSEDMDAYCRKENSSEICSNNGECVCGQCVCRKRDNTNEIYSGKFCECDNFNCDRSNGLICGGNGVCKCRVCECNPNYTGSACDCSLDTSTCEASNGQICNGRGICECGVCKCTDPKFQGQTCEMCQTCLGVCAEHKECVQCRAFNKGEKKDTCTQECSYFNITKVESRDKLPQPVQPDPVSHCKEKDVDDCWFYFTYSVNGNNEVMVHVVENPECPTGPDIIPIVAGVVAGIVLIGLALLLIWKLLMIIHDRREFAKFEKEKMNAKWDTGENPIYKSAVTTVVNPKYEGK
EXPERIMENT DESCRIPTION: Inhibition of VLA4-dependent adhesion of Ramos cells to BSA-CS1
Assay type: cell-based
STATED CONDITIONS: Ramos cells, BSA-CS1 coated wells, 2 mM MnCl2, 30 minutes at room temperature; read-out: IC50
pIC50: −log10 of the molar value. Numbered stars: 1 amine (or outer) side, 2 acyl side, 3 side chain; on linkers, the order of the positions; unused ones are H or OH. Square brackets hold non-standard residues; d marks the D form. Peptide text beside a SMILES is read from it. * marks the point of attachment. X2 = O=C(Cc1ccc(N[*:1])cc1)[*:2]; NHcHex = C1CCC(N*)CC1; CO = O=C([*:1])[*:2]; NHPh = c1ccc(N*)cc1

Req: Return the recorded pIC50 value; entry: Cc1ccccc1NC(=O)Nc1ccc(CC(=O)N[C@H](C(=O)N[C@@H](CC(=O)O)C(=O)N[C@@H](CC(=O)O)C(N)=O)[C@@H](C)O)cc1 [Compound 252]
Resp: > 7.30

Req: Return the recorded pIC50 value; entry: Cc1ccccc1NC(=O)Nc1ccc(CC(=O)N[C@@H](CC(C)C)C(=O)N[C@@H](CC(=O)O)C(=O)N[C@H](C(N)=O)[C@@H](C)O)cc1 [Compound 235]
Resp: > 7.30

Req: Return the recorded pIC50 value; entry: CNC(=O)[C@@H](NC(=O)[C@H](CC(=O)O)NC(=O)[C@H](CC(C)C)NC(=O)c1ccc2ccccc2n1)C(C)C [Compound 164]
Resp: 5.00 to 7.30

Req: Return the recorded pIC50 value; entry: CC(C)[C@H](NC(=O)[C@H](CC(=O)O)NC(=O)CCCCc1ccccc1)C(=O)N1CCC[C@H]1C(=O)O [Compound 150]
Resp: < 5.00

Req: Return the recorded pIC50 value; entry: CC(C)C[C@H](NC(=O)Cc1ccccc1)C(=O)N[C@@H](CC(=O)O)C(=O)N1CCC[C@H]1C(=O)NC(C(=O)O)C(=O)O [Compound 138]
Resp: < 5.00

Req: Return the recorded pIC50 value; entry: CC(C)C[C@H](NC(=O)Cc1ccc(NC(=O)Nc2ccccc2)cc1)C(=O)N[C@@H](CC(=O)O)C(=O)N[C@H](C(=O)N1CCC[C@H]1C(=O)NC1CCCCC1)C(C)C [Compound 324] ({NHPh-CO}-[X2]LDVP-NHcHex)
Resp: 5.00 to 7.30

====

Assign pIC50 to each entry below.
TESTED ON: VLA4 (Homo sapiens, UniProt P05556+P13612)
Construct: endogenous in cells; host or cells: Ramos cells
EXPERIMENT DESCRIPTION: Inhibition of VLA4-dependent adhesion of Ramos cells to BSA-CS1
Format: cell-based
STATED CONDITIONS: Ramos cells, BSA-CS1 coated wells, 2 mM MnCl2, 30 minutes at room temperature; read-out: IC50
pIC50: −log10 of the molar value. Peptide text beside a SMILES is read from it.

Req: Return the recorded pIC50 value; entry: CNC(=O)[C@@H](NC(=O)[C@H](CC(=O)O)NC(=O)[C@H](CC(C)C)N(C)C(=O)Cc1ccc(OC)cc1)C(C)C
Resp: < 5.00

Req: Return the recorded pIC50 value; entry: CC(C)C[C@H](NC(=O)CCC(=O)Nc1ccc(F)cc1)C(=O)N[C@@H](CC(=O)O)C(=O)N[C@H](C(=O)O)C(C)C
Resp: < 5.00

Req: Return the recorded pIC50 value; entry: CC(C)C[C@H](NC(=O)CCC(=O)N(C)c1ccccc1)C(=O)N[C@@H](CC(=O)O)C(=O)N[C@H](C(=O)O)C(C)C
Resp: < 5.00

Req: Return the recorded pIC50 value; entry: Cc1ccccc1NC(=O)Nc1ccc(CC(=O)N2CCC[C@H]2C(=O)N[C@@H](CCC(=O)O)C(=O)N[C@H](C(N)=O)C(C)C)cc1
Resp: > 7.30

Req: Return the recorded pIC50 value; entry: CC(C)C[C@H](NC(=O)c1cc2ccccc2cn1)C(=O)N[C@@H](CS)C(=O)N[C@H](C(=O)O)C(C)C
Resp: < 5.00

Req: Return the recorded pIC50 value; entry: COC(=O)[C@@H](NC(=O)[C@H](CC(=O)O)NC(=O)[C@H](CC(C)C)N(C)C(=O)Cc1ccc(O)cc1)C(C)C
Resp: < 5.00

Req: Return the recorded pIC50 value; entry: CC(C)[C@H](NC(=O)[C@H](CC(=O)O)NC(=O)C1Cc2ccccc2CN1)C(=O)O (some centres unmarked) [Compound 71] (HELM PEPTIDE1{[O=C(C1Cc2ccccc2CN1)[*:2]].D.V}$$$$V2.0)
Resp: < 5.00

Req: Return the recorded pIC50 value; entry: COC(=O)[C@@H](NC(=O)[C@H](CC(=O)O)NC(=O)[C@H](CC(C)C)N(C)C(=O)CCc1ccccc1)C(C)C [Compound 140] (HELM PEPTIDE1{[O=C(CCc1ccccc1)[*:2]].[meL].D.V.[CO[*:1]]}$$$$V2.0)
Resp: < 5.00

Req: Return the recorded pIC50 value; entry: COC(=O)[C@@H]1CCCN1C(=O)[C@@H](NC(=O)[C@H](CC(=O)O)NC(=O)[C@H](CC(C)C)NC(=O)c1ccc2ccccc2n1)C(C)C
Resp: 5.00 to 7.30

Req: Return the recorded pIC50 value; entry: CC(C)C[C@H](NC(=O)Cc1ccc(NC(=O)Nc2ccccc2)cc1)C(=O)N[C@@H](CC(=O)O)C(=O)N[C@H](C(=O)NCc1ccccc1)C(C)C
Resp: 5.00 to 7.30

Req: Return the recorded pIC50 value; entry: CNC(=O)[C@@H](NC(=O)[C@H](CC(=O)O)NC(=O)[C@H](CCSC)NC(=O)Cc1ccccc1)C(C)C [Compound 183] (HELM PEPTIDE1{[O=C(Cc1ccccc1)[*:2]].M.D.V.[CN[*:1]]}$$$$V2.0)
Resp: < 5.00

Req: Return the recorded pIC50 value; entry: CSCC[C@H](NC(=O)Cc1ccc(NC(=O)Nc2ccccc2C)cc1)C(=O)N[C@@H](CC(=O)O)C(=O)N[C@H](C(N)=O)C(C)C
Resp: > 7.30

Req: Return the recorded pIC50 value; entry: CC(C)C[C@H](NC(=O)CCc1ccccc1)C(=O)N[C@@H](CC(=O)O)C(=O)N[C@H](C(=O)N1CCC[C@H]1C(=O)O)C(C)C
Resp: < 5.00

Req: Return the recorded pIC50 value; entry: COC(=O)[C@@H](NC(=O)[C@H](CC(=O)O)NC(=O)[C@H](CC(C)C)N(CCc1ccccc1)C(C)=O)C(C)C
Resp: < 5.00

Req: Return the recorded pIC50 value; entry: CSCC[C@H](NC(=O)[C@H](CC(=O)O)NC(=O)[C@H](CCC(N)=O)NC(=O)Cc1ccc(NC(=O)Nc2ccccc2C)cc1)C(N)=O
Resp: > 7.30

Req: Return the recorded pIC50 value; entry: O=C(O)CNC(=O)[C@@H]1CCCN1C(=O)[C@H](CC(=O)O)NC(=O)Cc1ccccc1 [Compound 136] (HELM PEPTIDE1{[O=C(Cc1ccccc1)[*:2]].D.P.G}$$$$V2.0)
Resp: < 5.00

Req: Return the recorded pIC50 value; entry: CNC(=O)[C@@H](NC(=O)[C@H](CC(=O)O)NC(=O)C1(NC(=O)Cc2ccccc2)CCc2ccccc2C1)C(C)C (some centres unmarked)
Resp: < 5.00

Req: Return the recorded pIC50 value; entry: CNC(=O)[C@@H](NC(=O)[C@H](CC(=O)O)NC(=O)[C@H](CC(C)C)N(C)C(=O)Cc1ccc(O)cc1)C(C)C
Resp: < 5.00

Req: Return the recorded pIC50 value; entry: CC(C)CC(NC(=O)Cc1ccccc1)C(=O)NC(CC(=O)O)C(=O)NC(C(=O)N1CCCCC1C(=O)O)C(C)C (centres unmarked)
Resp: 5.00 to 7.30

Req: Return the recorded pIC50 value; entry: CCCCNC(=O)[C@@H](NC(=O)[C@H](CC(=O)O)NC(=O)[C@H](CC(C)C)NC(=O)OC(C)(C)C)[C@@H](C)O [Compound 354] (HELM PEPTIDE1{[CC(C)(C)OC(=O)[*:2]].L.D.T.[CCCCN[*:1]]}$$$$V2.0)
Resp: < 5.00

Req: Return the recorded pIC50 value; entry: CC(C)[C@H](NC(=O)[C@H](CC(=O)O)NC(=O)C1CCc2ccccc2C1)C(=O)O (some centres unmarked)
Resp: < 5.00

Req: Return the recorded pIC50 value; entry: CC(C)C[C@H](NC(=O)c1cc2ccccc2cn1)C(=O)N[C@@H](CC(=O)O)C(=O)N[C@H](C(=O)O)C(C)C
Resp: < 5.00

Req: Return the recorded pIC50 value; entry: CC(C)C[C@H](NC(=O)c1ccc2ccccc2n1)C(=O)N[C@@H](CC(=O)O)C(=O)N[C@H](C(=O)N1CCOCC1)[C@@H](C)O
Resp: 5.00 to 7.30

All figures here come from patent US6596687B1.
